- Protocol notes: in vitro
- Experimental setup: human, […]
Endpoint label: CC50 (µg/mL)
Entry rule: numbers only, all in µg/mL.

Molecule	Reported value
Nc1ccn(C[C@@H](CO)OCP(=O)(O)O)c(=O)n1 [HPMPC, reference compound]	68.6

The record that follows has no CC50 shown yet.
Requested read-out: CC50. Entry: CCCCCCCCCCCCCCCCOCCOP1(=O)CO[C@@H](Cn2cnc(N)nc2=O)CO1 (some centres unmarked) [Compound 12]
6

----------
- Protocol notes: in vitro
- Experimental setup: mouse
Catalogue of CC50 readings, one per entry.
Entry rule: numbers only, all in µg/mL.

Molecule	CC50 [µg/mL]
Nc1ncn(C[C@H]2COP(=O)(O)CO2)c(=O)n1	58.4
CCCCCCCCCCCCCCCCOCCOP1(=O)CO[C@@H](Cn2cnc(N)nc2=O)CO1 (stereo partly drawn)	10
Nc1ccn(C[C@@H](CO)OCP(=O)(O)O)c(=O)n1 [HPMPC, reference compound]	84.3

The record that follows has no CC50 shown yet.
Requested read-out: CC50. Entry: `Nc1ncn(C[C@@H](CO)OCP(=O)(O)O)c(=O)n1`
109

----------
- Protocol notes: in vitro
- Experimental setup: human, […]
Catalogue of CC50 readings, one per entry.

Reference set, count: 2
Compound	CC50
Nc1cnn(C[C@@H](CO)OCP(=O)(O)O)c(=O)n1 [HPMP-6-azaC analogue]	> 50 µg/mL
CCCCCCCCCCCCCCCCCCOP1(=O)CO[C@@H](Cn2cnc(N)nc2=O)CO1 (stereo partly drawn) [Compound 15]	> 100 µg/mL

The record that follows has no CC50 shown yet.
Requested read-out: CC50. Entry: Nc1ncn(C[C@H]2COP(=O)(O)CO2)c(=O)n1 [Compound 11]
> 50 µg/mL
